compounds and their reported MIC90
- System: Enterococcus faecalis
- method-summary: Antibacterial activity against vancomycin- and teichoplanin-nonsusceptible Enterococcus faecalis clinical isolate by broth microdilution method
- Assay type: functional
Answer with a number only, understood to be in µg/mL.

chemical-string	value-reported
CCCCCCCCCCNCCN[C@@]1(C)C[C@H](O[C@H]2[C@H](Oc3c4cc5cc3Oc3ccc(cc3Cl)[C@@H](O)[C@@H](NC(=O)[C@@H](CC(C)C)NC)C(=O)N[C@@H](CC(N)=O)C(=O)N[C@H]5C(=O)N[C@H]3C(=O)N[C@H](C(=O)N[C@H](C(=O)O)c5cc(O)c(CNCP(=O)(O)O)c(O)c5-c5cc3ccc5O)[C@H](O)c3ccc(c(Cl)c3)O4)O[C@H](CO)[C@@H](O)[C@@H]2O)O[C@@H](C)[C@H]1O	16
CC1(C)S[C@@H]2[C@H](NC(=O)[C@H](N)c3ccccc3)C(=O)N2[C@H]1C(=O)O	2
CCCCCCCCCC(=O)N[C@@H](Cc1c[nH]c2ccccc12)C(=O)N[C@H](CC(N)=O)C(=O)N[C@@H](CC(=O)O)C(=O)N[C@@H]1C(=O)NCC(=O)N[C@@H](CCCN)C(=O)N[C@@H](CC(=O)O)C(=O)N[C@H](C)C(=O)N[C@@H](CC(=O)O)C(=O)NCC(=O)N[C@H](CO)C(=O)N[C@@H]([C@H](C)CC(=O)O)C(=O)N[C@@H](CC(=O)c2ccccc2N)C(=O)O[C@@H]1C	1

Suppose we examine the compound `CC(=O)NC[C@H]1CN(c2ccc(N3CCOCC3)c(F)c2)C(=O)O1` ; what MIC90 value has been reported?
2

* * *

molecules and their reported MIC50
- Test system: Enterococcus faecalis
- method-summary: Antibacterial activity against vancomycin- and teichoplanin-nonsusceptible Enterococcus faecalis clinical isolate by broth microdilution method
- Assay type: functional
Answer with a number only, understood to be in µg/mL.

Recorded MIC50, per entry:
chemical-string	study-target	output-unit	MIC50
CCCCCCCCCCNCCN[C@@]1(C)C[C@H](O[C@H]2[C@H](Oc3c4cc5cc3Oc3ccc(cc3Cl)[C@@H](O)[C@@H](NC(=O)[C@@H](CC(C)C)NC)C(=O)N[C@@H](CC(N)=O)C(=O)N[C@H]5C(=O)N[C@H]3C(=O)N[C@H](C(=O)N[C@H](C(=O)O)c5cc(O)c(CNCP(=O)(O)O)c(O)c5-c5cc3ccc5O)[C@H](O)c3ccc(c(Cl)c3)O4)O[C@H](CO)[C@@H](O)[C@@H]2O)O[C@@H](C)[C@H]1O	Enterococcus faecalis	µg/mL	8
CC(=O)NC[C@H]1CN(c2ccc(N3CCOCC3)c(F)c2)C(=O)O1	Enterococcus faecalis	µg/mL	1

In the following, a different molecule is considered.
Suppose we examine the molecule `CN[C@H](CC(C)C)C(=O)N[C@H]1C(=O)N[C@@H](CC(N)=O)C(=O)N[C@H]2C(=O)N[C@H]3C(=O)N[C@H](C(=O)N[C@H](C(=O)O)c4cc(O)cc(O)c4-c4cc3ccc4O)[C@H](O)c3ccc(c(Cl)c3)Oc3cc2cc(c3O[C@@H]2O[C@H](CO)[C@@H](O)[C@H](O)[C@H]2O[C@H]2C[C@](C)(N)[C@H](O)[C@H](C)O2)Oc2ccc(cc2Cl)[C@H]1O` ; what MIC50 value has been reported?
512

Sourced from ChEMBL document CHEMBL1255376
